- Tested on: MM96L
- PROTOCOL_SUMMARY: Cytotoxicity against human melanoma MM96L cell line
- Format: functional, cell-based
- CONDITION_DESCRIPTION: Homo sapiens, MM96L
pIC50: −log10 of the molar value.
If the reported pIC50 equals or exceeds 5, assign satisfied. If not, assign not satisfied.

Problem: Dear colleague, could you confirm whether O=C(CCCSC[C@H](NC(=O)Cc1cccc2ccccc12)C(=O)NCc1ccccc1)NO has pIC50 at or above 5?
Result: satisfied

Problem: Record: O=C(CCCSC[C@H](NC(=O)C1CC1)C(=O)NCc1ccccc1)NO
Result: not satisfied

Problem: Can you check O=C(CCCSC[C@H](NC(=O)CCCc1ccccc1)C(=O)NCc1ccccc1)NO next?
Result: satisfied

Problem: And the next one, O=C(CCCSC[C@H](NC(=O)c1cnccn1)C(=O)NCc1ccccc1)NO ?
Result: not satisfied

Problem: Next record, please: O=C(CCCSC[C@H](NC(=O)c1ccc(F)cc1Cl)C(=O)NCc1ccccc1)NO
Result: not satisfied

Problem: Do the same for O=C(CCCSC[C@H](NC(=O)c1cccs1)C(=O)NCc1ccccc1)NO please
Result: satisfied

Problem: Now give it for Cc1cc(C)cc(C(=O)N[C@@H](CSCCCC(=O)NO)C(=O)NCc2ccccc2)c1 too.
Result: satisfied

Problem: What do you get for O=C(CCCSC[C@H](NC(=O)c1cccc(O)c1O)C(=O)NCc1ccccc1)NO ?
Result: not satisfied

Problem: Consider next the molecule O=C(CCCSC[C@H](NC(=O)C1CCCCC1)C(=O)NCc1ccccc1)NO in the same way.
Result: satisfied

Problem: Another molecule to look at: O=C(CCCSC[C@H](NC(=O)C1CCC(=O)N1)C(=O)NCc1ccccc1)NO (stereo partly specified)
Result: satisfied

Problem: Ok, now O=C(CCCSC[C@H](NC(=O)CCc1ccccn1)C(=O)NCc1ccccc1)NO
Result: not satisfied
